Sourced from ChEMBL document CHEMBL3102812

assay: Partition coefficient, log D of the compound at pH 7.4 by chromatographic method
details: octanol/water
Assign chromatographic logD to each entry below.
Form: value (number only, do not type unit).

The compound listed as N#Cc1ccc(N(c2cccnc2)C2CCN(c3ccc(C(F)(F)F)cc3)CC2)cc1 shows chromatographic logD equal to 4.7

The compound listed as FC(F)(F)c1ccc(N(c2cncnc2)C2CCN(c3ccc(C(F)(F)F)cn3)CC2)cc1 shows chromatographic logD equal to 4.9

The compound listed as CC(C)(C)CC(=O)N1CCC(N(c2ccc(Cl)cc2)c2cccnc2)CC1 shows chromatographic logD equal to 4.2

The compound listed as O=C([C@H](c1ccc(Cl)cc1)c1cccnc1)N1CCN(c2ccc(C(F)(F)F)cc2)CC1 shows chromatographic logD equal to 4.5

The compound listed as O=C(C(c1ccc(Cl)cc1)c1cccnc1)N1CCN(c2ccc(C(F)(F)F)cn2)CC1 (stereo not drawn) shows chromatographic logD equal to 4.2

The compound listed as N#Cc1ccc(C(C(=O)N2CCN(c3ccc(C(F)(F)F)nc3)CC2)c2cccnc2)cc1 (stereo not drawn) shows chromatographic logD equal to 3

The compound listed as N#Cc1ccc(C(C(=O)N2CCN(c3ccc(C(F)(F)F)cn3)CC2)c2cccnc2)cc1 (stereo not drawn) shows chromatographic logD equal to 3.5

The compound listed as N#Cc1ccc(C(C(=O)N2CCN(c3ccc(C(F)(F)F)cc3)CC2)c2cccnc2)cc1 (stereo not drawn) shows chromatographic logD equal to 3.8

The compound listed as CS(=O)(=O)c1ccc(N2CCN(C(=O)C(c3ccc(Cl)cc3)c3cccnc3)CC2)cc1 (stereo not drawn) shows chromatographic logD equal to 3

The compound listed as O=C([C@@H](c1ccc(Cl)cc1)c1cccnc1)N1CCN(c2ccc(C(F)(F)F)cc2)CC1 shows chromatographic logD equal to 4.5

The compound listed as CS(=O)(=O)c1ccc(N2CCN(C(=O)C(c3ccc(C#N)cc3)c3cccnc3)CC2)cc1 (stereo not drawn) shows chromatographic logD equal to 2.4

The compound listed as CS(=O)(=O)c1ccc(N2CCC(N(c3ccc(C#N)cc3)c3cccnc3)CC2)cc1 shows chromatographic logD equal to 3

The compound listed as N#Cc1ccccc1N1CCC(N(c2ccc(C(F)(F)F)cc2)c2cccnc2)CC1 shows chromatographic logD equal to 4.9

The compound listed as O=C(C(c1ccc(Cl)cc1)c1cccnc1)N1CCN(c2ccc(C(F)(F)F)cc2)CC1 (racemic) shows chromatographic logD equal to 4.5

The compound listed as O=C(C(c1ccc(Cl)cc1)c1cccnc1)N1CCN(c2ccc(C(F)(F)F)nc2)CC1 (stereo not drawn) shows chromatographic logD equal to 3.7

----------
assay: Volume of distribution at steady state in Swiss mouse at 2 mg/kg, iv and 20 mg/kg, po by LC/MS analysis
Type: ADME, organism-based
details: in vivo, read-out: Vdss
Assign Vd to each entry below.
Express your answer in L/kg, writing the number without its unit.

The compound listed as O=C([C@@H](c1ccc(Cl)cc1)c1cccnc1)N1CCN(c2ccc(C(F)(F)F)cc2)CC1 shows Vd equal to 4.2

The compound listed as FC(F)(F)c1ccc(N(c2cccnc2)C2CCN(c3ccc(C(F)(F)F)cn3)CC2)cc1 shows Vd equal to 4.4

----------
Assign pIC50 to each entry below.
pIC50 here: minus log base 10 of the concentration, concentration in moles per litre.

Result for CS(=O)(=O)c1ccc(N2CCN(C(=O)C(c3ccc(Cl)cc3)c3cccnc3)CC2)cc1 (stereo not drawn) , tested on Cytochrome P450 3A4 (Homo sapiens, UniProt P08684), pIC50: 5.40

Result for O=C([C@@H](c1ccc(Cl)cc1)c1cccnc1)N1CCN(c2ccc(C(F)(F)F)cc2)CC1 , tested on Cytochrome P450 3A4 (Homo sapiens, UniProt P08684), pIC50: 4.82
